From: patent US20210238170A1

# Target Under Test: human SGLT2 (Homo sapiens)
# Construct: expressed in transfected cells
# Sequence (P31639 whole entry): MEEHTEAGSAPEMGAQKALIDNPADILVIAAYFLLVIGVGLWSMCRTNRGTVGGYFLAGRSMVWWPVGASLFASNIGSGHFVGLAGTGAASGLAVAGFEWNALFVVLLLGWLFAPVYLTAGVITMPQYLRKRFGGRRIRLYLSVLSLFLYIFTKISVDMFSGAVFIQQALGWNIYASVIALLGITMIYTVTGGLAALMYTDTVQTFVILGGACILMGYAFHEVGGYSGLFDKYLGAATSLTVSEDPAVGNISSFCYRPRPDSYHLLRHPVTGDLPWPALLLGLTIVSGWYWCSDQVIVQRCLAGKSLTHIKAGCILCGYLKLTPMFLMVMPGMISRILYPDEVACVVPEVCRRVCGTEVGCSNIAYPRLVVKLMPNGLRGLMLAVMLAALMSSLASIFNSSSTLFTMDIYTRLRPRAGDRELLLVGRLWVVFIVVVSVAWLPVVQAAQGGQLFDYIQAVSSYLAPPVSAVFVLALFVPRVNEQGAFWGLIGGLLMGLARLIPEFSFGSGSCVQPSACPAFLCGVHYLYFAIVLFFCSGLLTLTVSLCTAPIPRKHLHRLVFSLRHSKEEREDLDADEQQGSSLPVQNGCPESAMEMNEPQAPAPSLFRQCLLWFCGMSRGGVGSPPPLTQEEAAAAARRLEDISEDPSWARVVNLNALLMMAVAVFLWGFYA
# Experimental Details: SGLT2 in vitro assay: Na-dependent 14C-AMG uptake in CHO-K1 cells stably expressing human SGLT2
# Assay type: cell-based
# Assay Setup: @ 0.3 μM; CHO-K1 cells stably expressing human SGLT2; 14C-AMG uptake
I'd appreciate it if you could supply SGLT2 % Inh @ 0.3 μM values for the items below.
Please append the unit to your numeric answer.

What the record says about COc1c([C@@H]2O[C@H](CO)C(F)(F)[C@H](O)[C@H]2O)cc(Cc2ccc(N(C)C)cc2)c2c1CCO2 [Compound 185] : SGLT2 % Inh @ 0.3 μM is 65.3%

Reported SGLT2 % Inh @ 0.3 μM ( CC(=O)N1CCc2sc(Cc3cc([C@@H]4O[C@H](CO)C(F)(F)[C@H](O)[C@H]4O)c(O)cc3Cl)cc2C1 [Compound 72] ) = 73.0%

Entry Cc1ccc([C@@H]2O[C@H](CO)C(F)(F)[C@H](O)[C@H]2O)cc1Cc1cc2c(s1)CCN(C(=O)c1nccs1)C2 [Compound 79] — recorded SGLT2 % Inh @ 0.3 μM = 63.6%

The compound COC(=O)N1CCc2sc(Cc3cc([C@@H]4O[C@H](CO)C(F)(F)[C@H](O)[C@H]4O)c(O)cc3Cl)cc2C1 [Compound 64] showed SGLT2 % Inh @ 0.3 μM equal to 67.1%

Sure, the documented SGLT2 % Inh @ 0.3 μM for CCc1ccc(Cc2cc([C@@H]3O[C@H](CO)C(F)(F)[C@H](O)[C@H]3O)c(OC)cc2C#N)cc1 [Compound 166] is 74.9%

Short answer for Cc1ccc([C@@H]2O[C@H](CO)C(F)(F)[C@H](O)[C@H]2O)cc1Cc1cc2c(s1)CCN(C(=O)C1CCCC1)C2 [Compound 84] : SGLT2 % Inh @ 0.3 μM was 54.4%

GET /value?item= OC[C@H]1O[C@@H](c2cc(Cc3ccc(OCF)cc3)c(C3CC3)cc2O)[C@H](O)[C@@H](O)C1(F)F [Compound 143] &field=SGLT2 % Inh @ 0.3 μM returns 62.9%
